The measurements presented in this section are drawn from patent US20250250357A1.

Some binders, each annotated with its measured OD450.
- targetSystem: T1, human MSLN-R3-his protein (human, UniProt Q13421 487-598)
- T1 construct: Self-made in HEK293E cells; also called human MSLN-R3 protein; hMSLN-R3-his; not shown: His tag
- T1 sequence (Q13421 495-606): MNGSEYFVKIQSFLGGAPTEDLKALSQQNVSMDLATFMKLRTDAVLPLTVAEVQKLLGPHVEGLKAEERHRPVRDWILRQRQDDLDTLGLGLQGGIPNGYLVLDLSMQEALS
- methodNotes: ELISA on coated antigen, antibody 100 nM
Expressed in OD450, but write only the number.

{"binder": "S009-F2.58.8 (antibody, human IgG1, kappa, V domains shown, Human-murine chimeric antibody: murine VH/VL on human IgG1 heavy and kappa light constant regions) VH: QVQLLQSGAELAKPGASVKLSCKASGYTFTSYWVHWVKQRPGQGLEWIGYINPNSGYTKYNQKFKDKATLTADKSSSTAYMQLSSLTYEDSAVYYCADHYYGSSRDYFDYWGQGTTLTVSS VL: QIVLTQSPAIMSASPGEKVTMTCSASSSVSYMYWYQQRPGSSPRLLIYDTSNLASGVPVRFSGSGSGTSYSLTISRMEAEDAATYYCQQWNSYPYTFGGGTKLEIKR", "valueUnit": "OD450", "OD450": 0.07}

Short answer for S009-F2-56.12 (antibody, human IgG1, kappa, V domains shown, Human-murine chimeric antibody: murine VH/VL on human IgG1 heavy and kappa light constant regions) VH: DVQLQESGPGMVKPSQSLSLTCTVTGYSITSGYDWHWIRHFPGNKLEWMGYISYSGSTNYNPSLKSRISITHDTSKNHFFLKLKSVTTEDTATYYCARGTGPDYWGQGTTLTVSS VL: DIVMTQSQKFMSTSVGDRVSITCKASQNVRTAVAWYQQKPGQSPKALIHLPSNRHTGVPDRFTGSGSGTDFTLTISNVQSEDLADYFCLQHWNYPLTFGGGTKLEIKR : OD450 was 0.13

Entry S009-F2.39.3 (antibody, human IgG1, kappa, V domains shown, Human-murine chimeric antibody: murine VH/VL on human IgG1 heavy and kappa light constant regions) VH: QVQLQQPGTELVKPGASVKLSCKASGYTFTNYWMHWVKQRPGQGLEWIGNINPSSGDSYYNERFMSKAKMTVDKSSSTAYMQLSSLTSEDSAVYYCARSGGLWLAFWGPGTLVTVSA VL: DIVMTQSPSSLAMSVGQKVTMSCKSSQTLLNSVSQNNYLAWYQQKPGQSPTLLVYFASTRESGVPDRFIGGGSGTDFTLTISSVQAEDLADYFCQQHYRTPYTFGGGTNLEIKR , OD450 reported as 1.84

Lab book: OD450 of S009-F2.47.1 (antibody, human IgG1, kappa, V domains shown, Human-murine chimeric antibody: murine VH/VL on human IgG1 heavy and kappa light constant regions) VH: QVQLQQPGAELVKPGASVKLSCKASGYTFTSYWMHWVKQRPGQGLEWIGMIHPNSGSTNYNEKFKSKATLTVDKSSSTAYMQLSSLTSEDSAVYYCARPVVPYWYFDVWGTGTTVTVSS VL: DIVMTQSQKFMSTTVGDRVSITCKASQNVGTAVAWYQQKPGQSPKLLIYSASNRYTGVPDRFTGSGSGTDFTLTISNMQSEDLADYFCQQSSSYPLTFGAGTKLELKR noted as 0.06
